Quick reference: IC50 at 72 h of the listed items.
experiment: Cytotoxicity against human A-431 cells harboring wild type EGFR assessed as reduction in cell viability incubated for 72 hrs by MTT assay; format: toxicity, cell-based
I only need the number, in nM, no unit after it.

C=CC(=O)N1CCC(Oc2nc(Nc3ccc(N4CCN(C)CC4)c(F)c3)nc3ccsc23)CC1; 1380

The compound identified as C=CC(=O)N1CCC(Oc2nc(Nc3ccc(N4CCOCC4)cc3)nc3ccsc23)CC1 registered its IC50 at 72 h at 3890

The compound identified as C=CC(=O)N1CCC(Oc2nc(Nc3ccc(N4CCN(C)CC4)cc3)nc3[nH]ccc23)CC1 registered its IC50 at 72 h at 1650
